Kindly supply the reported pIC50 values for the records listed here.
# Experimental target: human TRPM8 (Homo sapiens, UniProt Q7Z2W7)
# Construct: expressed in transfected cells; host or cells: Chinese hamster ovary (CHO) cells, T-REx tetracycline-inducible expression system (Invitrogen); co-transfected with pcDNA3.1 aequorin
# Sequence (Q7Z2W7 whole entry): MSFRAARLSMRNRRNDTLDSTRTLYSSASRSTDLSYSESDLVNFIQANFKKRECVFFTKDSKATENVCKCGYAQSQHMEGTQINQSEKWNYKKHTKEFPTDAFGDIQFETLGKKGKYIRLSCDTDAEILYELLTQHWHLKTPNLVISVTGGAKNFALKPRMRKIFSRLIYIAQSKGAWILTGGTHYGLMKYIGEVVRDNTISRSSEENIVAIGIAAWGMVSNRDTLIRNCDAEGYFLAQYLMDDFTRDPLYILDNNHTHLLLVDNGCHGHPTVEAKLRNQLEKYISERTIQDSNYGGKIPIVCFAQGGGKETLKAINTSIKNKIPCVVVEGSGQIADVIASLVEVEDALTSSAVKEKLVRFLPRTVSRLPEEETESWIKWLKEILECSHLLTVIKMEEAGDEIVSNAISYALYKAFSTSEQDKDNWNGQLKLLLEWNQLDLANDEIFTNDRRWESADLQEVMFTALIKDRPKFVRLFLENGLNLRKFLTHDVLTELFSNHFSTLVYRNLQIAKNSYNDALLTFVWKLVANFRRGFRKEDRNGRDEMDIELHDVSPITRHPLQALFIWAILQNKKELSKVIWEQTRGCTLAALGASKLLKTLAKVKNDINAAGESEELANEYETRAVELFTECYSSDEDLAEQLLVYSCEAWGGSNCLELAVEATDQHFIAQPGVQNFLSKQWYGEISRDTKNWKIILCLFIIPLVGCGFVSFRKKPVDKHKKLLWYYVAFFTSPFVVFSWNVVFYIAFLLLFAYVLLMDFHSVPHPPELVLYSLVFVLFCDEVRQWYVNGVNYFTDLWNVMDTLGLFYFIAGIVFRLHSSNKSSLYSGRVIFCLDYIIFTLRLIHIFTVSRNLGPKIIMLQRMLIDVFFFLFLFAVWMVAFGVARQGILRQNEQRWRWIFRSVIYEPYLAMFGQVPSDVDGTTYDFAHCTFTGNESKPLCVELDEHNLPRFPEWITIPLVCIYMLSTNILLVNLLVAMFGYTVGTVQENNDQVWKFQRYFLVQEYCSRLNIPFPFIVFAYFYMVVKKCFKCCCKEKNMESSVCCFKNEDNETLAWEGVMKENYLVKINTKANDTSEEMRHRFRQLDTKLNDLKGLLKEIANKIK
# Assay summary: Luminescence readout assay for measuring intracellular calcium (aequorin, CHO cells expressing human TRPM8; icilin, L-menthol or cold activation)
# Assay type: cell-based
# Recorded conditions: CHO cells expressing human TRPM8, icilin activation (1 μM), aequorin luminescence; read-out: hTRPM8 IC50
Where a name gives a salt, the structure may show the parent alone.
The read-out pIC50 is expressed as -log10 of concentration in moles per litre.

In plain terms, `O=C(N[C@]1(c2ccc(C(F)(F)F)cc2)CCOc2cccnc21)c1cc(F)c(O)c(F)c1` has a documented pIC50 of 8.40

pIC50 for O=C(N[C@]1(c2ccc(OC(F)(F)F)cc2)CCOc2cccnc21)c1ccc2cnccc2c1 [Example 250, formate] is 7.82

Noted for `O=C(Nc1ccc(C(=O)O)cc1)N[C@]1(c2ccc(OC(F)(F)F)c(F)c2)CCOc2cccnc21` : its pIC50 reads 6.41

Entry `O=C(N[C@]1(c2ccc(C(F)(F)F)c(F)c2)CCOc2cccnc21)c1ccc(=O)[nH]c1` ; pIC50 = 7.68

Reported pIC50 of O=C(N[C@]1(c2ccc(C(F)(F)F)cc2)CCOc2cccnc21)c1ccc(F)cc1 (single isomer, unassigned) : 7.07

get_value(item= `O=C(N[C@]1(c2ccc(-c3cc(F)ccc3CO)cc2)CCOc2cccnc21)c1ccc(F)cc1` , readout=pIC50) returns 6.47

Field pIC50 (entry O=C(N[C@]1(c2ccc(C(F)(F)F)cc2)CCOc2cccnc21)c1ccc2[nH]c(=O)oc2c1 (single isomer, unassigned) ) reads 8.00

// sample `O=C(Nc1ncccn1)N[C@]1(c2ccc(OC(F)(F)F)c(F)c2)CCOc2cccnc21` , its pIC50 was 7.55

For reference, reported pIC50 for `O=C(O)c1ccc(C(=O)N[C@]2(c3ccc(OC(F)(F)F)c(F)c3)CCOc3cccnc32)cc1` stands at 8.15

Per the record, `C=Cc1cc(C(=O)N[C@]2(c3ccc(OC(F)(F)F)c(F)c3)CCOc3cccnc32)ccc1C(=O)O` has pIC50 of 7.74

# pIC50 of O=C(Nc1cccnc1)NC1(c2ccc(C(F)(F)F)cc2)CCOc2ccccc21 (stereo not drawn) = 5.87

`O=C(N[C@]1(c2ccc(C(F)(F)F)cc2)CCOc2cccnc21)c1ccnnc1` yielded pIC50 of 5.58

The measured pIC50 associated with `CCOC(=O)c1ccc(C(=O)N[C@]2(c3ccc(OC(F)(F)F)c(F)c3)CCOc3cccnc32)nc1C` reads 7.49

// recorded pIC50 for `O=C(N[C@]1(c2ccc(-c3cncnc3)cc2)CCOc2cccnc21)c1ccc(F)cc1` : 5.85

// field: pIC50; key: O=C(N[C@]1(c2ccc(Cl)c(F)c2)CCOc2cccnc21)c1ccccc1 (single isomer, unassigned) ; value = 7.27

----------
# Experimental target: human TRPM8 (Homo sapiens, UniProt Q7Z2W7)
# Construct: expressed in transfected cells; host or cells: Chinese hamster ovary (CHO) cells, T-REx tetracycline-inducible expression system (Invitrogen); co-transfected with pcDNA3.1 aequorin
# Assay summary: Luminescence readout assay for measuring intracellular calcium (aequorin, CHO cells expressing human TRPM8; icilin, L-menthol or cold activation)
# Format: cell-based
# Recorded conditions: CHO cells expressing human TRPM8, icilin activation (1 μM), aequorin luminescence; read-out: hTRPM8 IC50
Where a name gives a salt, the structure may show the parent alone.
Consider the following molecules; for each one, report its pIC50.
Entry type: numeric. Quantity: pIC50, the -log10 of concentration in molar units.

Value of measured pIC50 for the entry O=C(NC1(c2ccc(C(F)(F)F)cc2)CCCc2cccnc21)c1ccc(=O)[nH]c1 (stereo not shown) : 6.11

Reported pIC50 of Cn1cc2cccc(C(=O)N[C@]3(c4ccc(OC(F)(F)F)cc4)CCOc4cccnc43)c2n1 [Example 266, formate] : 7.44

According to the records, this molecule Cn1c(C(=O)N[C@]2(c3ccc(OC(F)(F)F)cc3)CCOc3cccnc32)cc2ccccc21 [Example 256, formate] displays pIC50 of 7.32

Entry `COC(=O)c1cc2ccc(C(=O)N[C@]3(c4ccc(OC(F)(F)F)c(F)c4)CCOc4cccnc43)cc2n1C` ; pIC50 = 8.15

Form field pIC50, entry O=C(NC1(c2ccc(Cl)c(Cl)c2)CCOc2cccnc21)c1ccc(F)cc1 (stereo not shown) : 6.79

For Cn1ccc(C(=O)N[C@]2(c3ccc(OC(F)(F)F)cc3)CCOc3cccnc32)n1 [Example 227, formate] the molecule record lists pIC50 as 7.23

Notebook: `Nc1ccccc1-c1ccc([C@@]2(NC(=O)c3ccc(F)cc3)CCOc3cccnc32)cc1` , pIC50 read as 6.75

----------
# Experimental target: human TRPM8 (Homo sapiens, UniProt Q7Z2W7)
# Construct: expressed in transfected cells; host or cells: Chinese hamster ovary (CHO) cells, T-REx tetracycline-inducible expression system (Invitrogen); co-transfected with pcDNA3.1 aequorin
# Assay summary: Luminescence readout assay for measuring intracellular calcium (aequorin, CHO cells expressing human TRPM8; icilin, L-menthol or cold activation)
# Format: cell-based
# Recorded conditions: CHO cells expressing human TRPM8, icilin activation (1 μM), aequorin luminescence; read-out: hTRPM8 IC50
Counter-ions that a name gives are not always drawn.
Classes (IC50): low interval = under 20 nM, middle interval = from 20 nM up to 400 nM, high interval = 400 nM and over

Which band does CNC(=O)c1ccc(-c2ccc([C@@]3(NC(=O)c4ccc(F)cc4)CCOc4cccnc43)cc2)cc1 [Example 138] fall in? high interval

Given COc1cc(C(=O)O)ccc1C(=O)N[C@]1(c2ccc(OC(F)(F)F)c(F)c2)CCOc2cccnc21 [Example 314] , name the class its IC50 places it in. low interval

Dear colleague, I would appreciate it if you could identify the bin for O=C(N[C@]1(c2ccc(F)cc2)CCOc2cccnc21)c1ccccc1 (single isomer, unassigned) [Example 16] and reply at your convenience. middle interval

Please let me know in which category the item O=C(N[C@]1(c2ccc(C(F)(F)F)c(F)c2)CCOc2cccnc21)c1ccccc1 (single isomer, unassigned) [Example 19] belongs. low interval

For O=C(N[C@]1(c2ccc(C(F)(F)F)cc2)CCOc2cccnc21)c1ccns1 [Example 41] , which IC50 bin applies? middle interval

Kindly identify the class of CS(=O)(=O)c1ccc(-c2ccc([C@@]3(NC(=O)c4ccc(F)cc4)CCOc4cccnc43)cc2)cc1 [Example 119] . high interval

Band for the recorded IC50 of O=C(Nc1cncnc1)N[C@]1(c2ccc(OC(F)(F)F)c(F)c2)CCOc2cccnc21 [Example 85] ? low interval

Band of COc1c(C(=O)O)cccc1C(=O)N[C@]1(c2ccc(OC(F)(F)F)c(F)c2)CCOc2cccnc21 [Example 186] ? middle interval

Quick check: band for O=C(N[C@]1(c2ccc(OC(F)(F)F)c(F)c2)CCOc2cccnc21)c1ccc(CO)cc1 [Example 158] low interval

Assign a bin to O=C(N[C@]1(c2ccc(OC(F)(F)F)cc2)CCOc2cccnc21)c1cc2n(n1)CCCO2 [Example 220, formate] low interval

Classify this compound: O=C(Nc1ccccn1)N[C@]1(c2ccc(OC(F)(F)F)c(F)c2)CCOc2cccnc21 [Example 95] middle interval

Band for Nc1ccc(-c2ccc([C@@]3(NC(=O)c4ccc(F)cc4)CCOc4cccnc43)cc2)cc1 [Example 147] ? high interval

Categorize the following entry: O=C(N[C@]1(c2ccc(OC(F)(F)F)c(F)c2)CCOc2cccnc21)c1ccc(-c2nn[nH]n2)cn1 [Example 281] middle interval

Where would COC(=O)c1cccc(NC(=O)N[C@]2(c3ccc(OC(F)(F)F)c(F)c3)CCOc3cccnc32)c1 [Example 91] land among the classes by reported IC50? low interval

Using the reported IC50, which band applies to O=C(N[C@]1(c2ccc(OC(F)(F)F)c(F)c2)CC(=O)c2cccnc21)c1ccc(=O)[nH]c1 [Example 165] ? high interval

----------
# Experimental target: human TRPM8 (Homo sapiens)
# Construct: expressed in transfected cells; host or cells: Chinese hamster ovary (CHO) cells, T-REx tetracycline-inducible expression system (Invitrogen); co-transfected with pcDNA3.1 aequorin
# Assay summary: Luminescence readout assay for measuring intracellular calcium (aequorin, CHO cells expressing human TRPM8; icilin, L-menthol or cold activation)
# Assay type: cell-based
# Recorded conditions: CHO cells expressing human TRPM8, icilin activation (1 μM), aequorin luminescence; read-out: hTRPM8 IC50
Where a name gives a salt, the structure may show the parent alone.
Measure: IC50 (nM)
Just the number please, in nM, no unit attached.

The value of IC50 measured for the compound `O=C(N[C@]1(c2ccc(-c3ccccn3)cc2)CCOc2cccnc21)c1ccc(F)cc1` turned out to be 233

The measured IC50 associated with `O=C(N[C@]1(c2ccc(OC(F)(F)F)c(F)c2)CCOc2cccnc21)c1c[nH]c(C(=O)O)c1` reads 3700

IC50 recorded for this compound, `COC(=O)c1ccc(C(=O)N[C@]2(c3ccc(OC(F)(F)F)c(F)c3)CCOc3cccnc32)cc1N` , is 15

Input `O=C(N[C@]1(c2ccc(OC(F)(F)F)c(F)c2)CCOc2cccnc21)N1CCCCC1` . Output IC50: 23

Entry NC(=O)c1ccc(C(=O)N[C@]2(c3ccc(OC(F)(F)F)c(F)c3)CCOc3cccnc32)cc1 [Example 195, trifluoroacetate] — recorded IC50 = 6

Record `CNC(=O)c1cccc(C(=O)N[C@]2(c3ccc(OC(F)(F)F)c(F)c3)CCOc3cccnc32)c1` . Reported IC50: 55

# IC50 of COc1ccc(C(=O)N[C@]2(c3ccc(C(F)(F)F)cc3)CCOc3cccnc32)cc1 (single isomer, unassigned) = 21
